molecular target: mMC1R (Mus musculus, UniProt Q01727); experiment: cAMP-based β-galactosidase reporter agonist assay in HEK293 cells, mMC1R; conditions: EC50 of substituted peptide divided by EC50 of NDP-MSH; potency loss
Sequence (Q01727 whole entry): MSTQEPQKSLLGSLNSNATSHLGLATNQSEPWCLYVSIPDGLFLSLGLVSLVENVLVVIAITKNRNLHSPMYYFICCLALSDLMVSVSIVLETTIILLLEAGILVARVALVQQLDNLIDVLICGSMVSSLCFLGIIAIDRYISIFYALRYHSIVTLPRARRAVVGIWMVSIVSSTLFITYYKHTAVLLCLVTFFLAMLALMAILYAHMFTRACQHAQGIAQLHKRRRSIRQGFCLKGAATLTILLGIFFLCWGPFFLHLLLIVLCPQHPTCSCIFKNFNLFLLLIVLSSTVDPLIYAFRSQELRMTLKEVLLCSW
measurement-kind: mMC1R fold difference (fold)
Give the quantity in fold, number only.

Q) Report mMC1R fold difference for CCCC[C@H](NC(=O)[C@H](CO)NC(=O)[C@H](Cc1ccc(O)cc1)NC(=O)[C@H](CO)NC(C)=O)C(=O)N[C@@H](CCC(=O)O)C(=O)N[C@@H](Cc1c[nH]cn1)C(=O)N[C@H](Cc1ccccc1)C(=O)N[C@@H](C)C(=O)N[C@@H](Cc1c[nH]c2ccccc12)C(=O)NCC(=O)N[C@@H](CCCCN)C(=O)N1CCC[C@H]1C(=O)N[C@H](C(N)=O)C(C)C [[Ala^8]NDP-MSH] please.
A) 6

* * *

target: mMC1R (Mus musculus, UniProt Q01727); test: cAMP-based β-galactosidase reporter agonist assay in HEK293 cells, mMC1R; conditions: EC50 of substituted peptide divided by EC50 of NDP-MSH; potency loss
Overview of recorded mMC1R fold difference for various molecules
Kindly provide the numeric value in fold only, without the unit symbol.

molecule: CCCC[C@H](NC(=O)[C@H](CO)NC(=O)[C@H](Cc1ccc(O)cc1)NC(=O)[C@H](CO)NC(C)=O)C(=O)N[C@@H](CCC(=O)O)C(=O)N[C@@H](Cc1c[nH]cn1)C(=O)N[C@H](Cc1ccccc1)C(=O)N[C@@H](CCCNC(=N)N)C(=O)N[C@@H](C)C(=O)NCC(=O)N[C@@H](CCCCN)C(=O)N1CCC[C@H]1C(=O)N[C@H](C(N)=O)C(C)C [[Ala^9]NDP-MSH]
units-text: fold
mMC1R fold difference: 180

Next molecule, please.
Q) I am curious: what mMC1R fold difference value has been reported for CCCC[C@H](NC(=O)[C@H](CO)NC(=O)[C@H](Cc1ccc(O)cc1)NC(=O)[C@H](CO)NC(C)=O)C(=O)N[C@@H](CCC(=O)O)C(=O)N[C@@H](Cc1c[nH]cn1)C(=O)N[C@H](Cc1ccccc1)C(=O)N[C@@H](CCCNC(=N)N)C(=O)N[C@@H](Cc1c[nH]c2ccccc12)C(=O)NCC(=O)N[C@@H](CCCCN)C(=O)N[C@@H](C)C(=O)N[C@H](C(N)=O)C(C)C [[Ala^12]NDP-MSH] ?
A) 4

* * *

molecular target: mMC3R (Mus musculus, UniProt P33033); assay: cAMP-based β-galactosidase reporter agonist assay in HEK293 cells, mMC3R
Sequence (P33033 whole entry): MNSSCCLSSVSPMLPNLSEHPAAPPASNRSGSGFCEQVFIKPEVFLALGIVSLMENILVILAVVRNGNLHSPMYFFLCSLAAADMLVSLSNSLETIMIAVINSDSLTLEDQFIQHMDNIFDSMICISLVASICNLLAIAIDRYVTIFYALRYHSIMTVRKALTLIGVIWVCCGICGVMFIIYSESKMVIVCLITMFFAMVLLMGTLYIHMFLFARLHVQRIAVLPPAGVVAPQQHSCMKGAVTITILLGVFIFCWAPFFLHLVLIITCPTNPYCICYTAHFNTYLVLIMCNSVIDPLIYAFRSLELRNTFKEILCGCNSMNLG
Listed here are compounds together with their documented pEC50.
Please express pEC50 as -log10 of the molar concentration.

compound: CCCC[C@H](NC(=O)[C@H](C)NC(=O)[C@H](Cc1ccc(O)cc1)NC(=O)[C@H](CO)NC(C)=O)C(=O)N[C@@H](CCC(=O)O)C(=O)N[C@@H](Cc1c[nH]cn1)C(=O)N[C@H](Cc1ccccc1)C(=O)N[C@@H](CCCNC(=N)N)C(=O)N[C@@H](Cc1c[nH]c2ccccc12)C(=O)NCC(=O)N[C@@H](CCCCN)C(=O)N1CCC[C@H]1C(=O)N[C@H](C(N)=O)C(C)C [[Ala^3]NDP-MSH]
study-target: mMC3R (Mus musculus, UniProt P33033)
measurement-kind: pEC50
observed-measurement: 9.47
//
compound: CSCC[C@H](NC(=O)[C@H](CO)NC(=O)[C@H](Cc1ccc(O)cc1)NC(=O)[C@H](CO)NC(C)=O)C(=O)N[C@@H](CCC(=O)O)C(=O)N[C@@H](Cc1c[nH]cn1)C(=O)N[C@@H](C)C(=O)N[C@@H](CCCNC(=N)N)C(=O)N[C@@H](Cc1c[nH]c2ccccc12)C(=O)NCC(=O)N[C@@H](CCCCN)C(=O)N1CCC[C@H]1C(=O)N[C@H](C(N)=O)C(C)C [[Ala^7]α-MSH]
study-target: mMC3R (Mus musculus, UniProt P33033)
measurement-kind: pEC50
observed-measurement: 5.78

Q) If you can, please state the reported pEC50 value of CSCC[C@H](NC(=O)[C@H](CO)NC(=O)[C@H](Cc1ccc(O)cc1)NC(=O)[C@H](CO)NC(C)=O)C(=O)N[C@@H](CCC(=O)O)C(=O)N[C@@H](Cc1c[nH]cn1)C(=O)N[C@@H](Cc1ccccc1)C(=O)N[C@@H](CCCNC(=N)N)C(=O)N[C@@H](Cc1c[nH]c2ccccc12)C(=O)NCC(=O)N[C@@H](C)C(=O)N1CCC[C@H]1C(=O)N[C@H](C(N)=O)C(C)C [[Ala^11]α-MSH] .
A) 7.31

* * *

biological target: mMC3R (Mus musculus); assay: cAMP-based β-galactosidase reporter agonist assay in HEK293 cells, mMC3R
measurement-kind: EC50 (nM)
Kindly provide the numeric value in nM only, without the unit symbol.

Q) Entry CCCC[C@H](NC(=O)[C@H](CO)NC(=O)[C@H](Cc1ccc(O)cc1)NC(=O)[C@H](CO)NC(C)=O)C(=O)N[C@@H](CCC(=O)O)C(=O)N[C@@H](Cc1c[nH]cn1)C(=O)N[C@@H](C)C(=O)N[C@@H](CCCNC(=N)N)C(=O)N[C@@H](Cc1c[nH]c2ccccc12)C(=O)NCC(=O)N[C@@H](CCCCN)C(=O)N1CCC[C@H]1C(=O)N[C@H](C(N)=O)C(C)C [[Ala^7]NDP-MSH] has what EC50?
A) 260

Q) # lookup: EC50 of CSCC[C@H](NC(=O)[C@H](CO)NC(=O)[C@H](Cc1ccc(O)cc1)NC(=O)[C@H](CO)NC(C)=O)C(=O)N[C@@H](CCC(=O)O)C(=O)N[C@@H](Cc1c[nH]cn1)C(=O)N[C@@H](Cc1ccccc1)C(=O)N[C@@H](CCCNC(=N)N)C(=O)N[C@@H](Cc1c[nH]c2ccccc12)C(=O)N[C@@H](C)C(=O)N[C@@H](CCCCN)C(=O)N1CCC[C@H]1C(=O)N[C@H](C(N)=O)C(C)C [[Ala^10]α-MSH]
A) 33

* * *

target: mMC1R (Mus musculus, UniProt Q01727); experiment: cAMP-based β-galactosidase reporter agonist assay in HEK293 cells, mMC1R; conditions: EC50 of substituted peptide divided by EC50 of NDP-MSH; potency loss
measurement-kind: mMC1R fold difference

compound: CCCC[C@H](NC(=O)[C@H](CO)NC(=O)[C@H](Cc1ccc(O)cc1)NC(=O)[C@H](CO)NC(C)=O)C(=O)N[C@@H](CCC(=O)O)C(=O)N[C@@H](Cc1c[nH]cn1)C(=O)N[C@H](Cc1ccccc1)C(=O)N[C@@H](CCCNC(=N)N)C(=O)N[C@@H](Cc1c[nH]c2ccccc12)C(=O)NCC(=O)N[C@@H](CCCCN)C(=O)N1CCC[C@H]1C(=O)N[C@@H](C)C(N)=O [[Ala^13]NDP-MSH]
observed-measurement: unaltered

compound: CCCC[C@H](NC(=O)[C@H](CO)NC(=O)[C@H](Cc1ccc(O)cc1)NC(=O)[C@H](CO)NC(C)=O)C(=O)N[C@@H](CCC(=O)O)C(=O)N[C@@H](Cc1c[nH]cn1)C(=O)N[C@H](Cc1ccccc1)C(=O)N[C@@H](CCCNC(=N)N)C(=O)N[C@@H](Cc1c[nH]c2ccccc12)C(=O)NCC(=O)N[C@@H](C)C(=O)N1CCC[C@H]1C(=O)N[C@H](C(N)=O)C(C)C [[Ala^11]NDP-MSH]
observed-measurement: unaltered

* * *

biological target: mMC5R (Mus musculus, UniProt P41149); assay: cAMP-based β-galactosidase reporter agonist assay in HEK293 cells, mMC5R; conditions: EC50 of substituted peptide divided by EC50 of NDP-MSH; potency loss
Sequence (P41149 whole entry): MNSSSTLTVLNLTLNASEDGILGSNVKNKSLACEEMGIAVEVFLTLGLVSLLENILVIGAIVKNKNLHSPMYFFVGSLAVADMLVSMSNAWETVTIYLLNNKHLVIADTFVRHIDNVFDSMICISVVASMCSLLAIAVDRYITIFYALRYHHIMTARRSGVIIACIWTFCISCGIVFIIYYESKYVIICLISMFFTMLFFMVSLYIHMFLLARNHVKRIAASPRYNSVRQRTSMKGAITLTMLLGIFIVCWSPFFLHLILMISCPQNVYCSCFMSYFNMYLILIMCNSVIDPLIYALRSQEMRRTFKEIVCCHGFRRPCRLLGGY

molecule: CCCC[C@H](NC(=O)[C@H](CO)NC(=O)[C@H](Cc1ccc(O)cc1)NC(=O)[C@H](CO)NC(C)=O)C(=O)N[C@@H](CCC(=O)O)C(=O)N[C@@H](Cc1c[nH]cn1)C(=O)N[C@H](Cc1ccccc1)C(=O)N[C@@H](CCCNC(=N)N)C(=O)N[C@@H](Cc1c[nH]c2ccccc12)C(=O)N[C@@H](C)C(=O)N[C@@H](CCCCN)C(=O)N1CCC[C@H]1C(=O)N[C@H](C(N)=O)C(C)C [[Ala^10]NDP-MSH]
mMC5R fold difference: unaltered

molecule: CCCC[C@H](NC(=O)[C@H](CO)NC(=O)[C@H](Cc1ccc(O)cc1)NC(=O)[C@H](CO)NC(C)=O)C(=O)N[C@@H](CCC(=O)O)C(=O)N[C@@H](Cc1c[nH]cn1)C(=O)N[C@H](Cc1ccccc1)C(=O)N[C@@H](CCCNC(=N)N)C(=O)N[C@@H](C)C(=O)NCC(=O)N[C@@H](CCCCN)C(=O)N1CCC[C@H]1C(=O)N[C@H](C(N)=O)C(C)C [[Ala^9]NDP-MSH]
mMC5R fold difference: 220 fold

molecule: CCCC[C@H](NC(=O)[C@H](CO)NC(=O)[C@H](Cc1ccc(O)cc1)NC(=O)[C@H](CO)NC(C)=O)C(=O)N[C@@H](CCC(=O)O)C(=O)N[C@@H](Cc1c[nH]cn1)C(=O)N[C@H](Cc1ccccc1)C(=O)N[C@@H](CCCNC(=N)N)C(=O)N[C@@H](Cc1c[nH]c2ccccc12)C(=O)NCC(=O)N[C@@H](C)C(=O)N1CCC[C@H]1C(=O)N[C@H](C(N)=O)C(C)C [[Ala^11]NDP-MSH]
mMC5R fold difference: unaltered

molecule: CCCC[C@H](NC(=O)[C@H](CO)NC(=O)[C@H](Cc1ccc(O)cc1)NC(=O)[C@H](CO)NC(C)=O)C(=O)N[C@@H](CCC(=O)O)C(=O)N[C@@H](Cc1c[nH]cn1)C(=O)N[C@@H](C)C(=O)N[C@@H](CCCNC(=N)N)C(=O)N[C@@H](Cc1c[nH]c2ccccc12)C(=O)NCC(=O)N[C@@H](CCCCN)C(=O)N1CCC[C@H]1C(=O)N[C@H](C(N)=O)C(C)C [[Ala^7]NDP-MSH]
mMC5R fold difference: 180 fold

Values were extracted from paper PMC5596636.
